# experiment: Human HepG2 cell viability assay in 384 well format
# Type: toxicity, cell-based
# Set-up: dose 125 nL, time 70.5 hour; concentration not given beside the values
# measurement-parameters: HepG2 cells, read-out: Inhibition
assay-metric: cytotoxicity at 70.5 h (%)
Numbers only, in %.

# molecule, unit-of-measurement, cytotoxicity at 70.5 h
rows = [
    ("Cc1nn(C)c2nc(N(Cc3ccccn3)CC3CCCO3)sc12 (configuration not stated)", "%", 17.1),
]

// input: 4 molecules below; output: cytotoxicity at 70.5 h for each
1. Cc1ccc(-c2cc(C(=O)N(C)Cc3noc4c3CCCC4)[nH]n2)o1
2. CC(O)CC(C)(C)CNS(=O)(=O)c1cccc(Cl)c1C#N (configuration not stated)
3. Cc1cccc2cc(CN3CCC(O)(CN4CCCC4)CC3)c(=O)[nH]c12
4. COCCN1CC(c2nc(CC3CCN(C)CC3)no2)CCC1=O (configuration not stated)

1. 43.8
2. -10
3. -0.171
4. -11.5

# per-item lookup of cytotoxicity at 70.5 h; items listed below
1. Cc1ccc(CNC(=O)CN(C)CC2CCN(CCO)CC2)s1
2. N#CC1(NC(=O)COC(=O)Cc2cc(Cl)c3c(c2)OCCO3)CCCC1
3. CS(=O)(=O)CCCNc1cccc(COC2CCCCC2)c1
4. Cc1nnc2ccc(N3CCN(Cc4nccn4C)CC3)nn12
5. COc1ccccc1OCCC(=O)NCc1ncc(C)c(OC)c1C
6. O=C(CNC(=O)c1cnc2ccccc2c1O)NCCCn1ccnc1
7. CC(C)COC(C)C(=O)NCc1ccc(-n2cncn2)nc1 (configuration not stated)
8. Cc1cc(Br)ccc1NCC(=O)Nc1cc(C(C)(C)C)no1

1: 2.24; 2: 16.4; 3: -12.7; 4: 5.33; 5: -4.64; 6: -16.5; 7: 3.66; 8: -4.88

Hi there! I need cytotoxicity at 70.5 h for each item below, if you can.
1. CCSc1nc(N)c(NC(=O)c2ccc(C)cc2)c(=O)[nH]1
2. COC[C@@H]1CCC[C@]12CN(S(=O)(=O)c1cccs1)CCO2
3. OCCC1(NCc2ccc(-n3cccn3)cc2)CCOCC1
4. CC(=O)N1CCC(Cc2cnc(-n3ccnc3)cn2)CC1
5. N#Cc1ccccc1C(=O)N1C[C@H]2CC[C@@H]1CN(c1ncccn1)C2
6. CCOc1ncnc2c1CCN(c1cc(C(F)(F)F)ncn1)CC2

1. 10.5
2. -4.17
3. -2.65
4. -6.47
5. 18.3
6. 3.85

For the 2 molecules below, give their cytotoxicity at 70.5 h values.
1. CCc1cn[nH]c1C1CCN(c2cc(C)c3cccc(OC)c3n2)CC1
2. Cc1ccc(C)c(NC(=O)Cn2cc(I)cn2)c1

[0.472, -13.2]

----------
# experiment: Human HepG2 cell viability assay in 384 well format
# Format: toxicity, cell-based
# Design: dose 125 nL, time 70.5 hour; concentration not given beside the values
# measurement-parameters: HepG2 cells, read-out: Inhibition
assay-metric: cytotoxicity at 70.5 h (%)
Answers are plain numbers, in %.

# compound, cytotoxicity at 70.5 h, %
data = [
    ("O=C(CN1CCC(Nc2ncccn2)CC1)Nc1ccccc1", -5.9),
    ("CCN1CCCN(c2ccc(-n3ccc(C)n3)nn2)CC1", 10.6),
    ("C[C@H](O)CNc1cc(-c2ccncc2)ncn1", -0.809),
    ("CC(=O)c1cn(CCC(=O)N[C@H](C(=O)O)C(C)C)c2ccccc12", -4),
    ("CCC(=O)N1CCC(NC(=O)c2cccc(-n3ccnc3)c2)C1 (configuration not stated)", -8.46),
    ("Cc1ccc(NC(C)C(=O)NCc2cccs2)cc1Cl (configuration not stated)", 5.9),
    ("Cc1ccsc1-c1nccn1CCN1CCCOC1=O", -9.87),
    ("O=C1C(Nc2ccc3nccnc3n2)CCN1c1ccccc1F (configuration not stated)", -9.82),
]

The following compounds each have a reported value; give each one's cytotoxicity at 70.5 h.
1. CNC(=O)c1ccc(CNc2ccncc2Cl)cc1
2. CSc1ccccc1-n1ccnc1-c1cn(C2CCNCC2)nn1
3. Cc1ncc(CN2CCC(c3nc(O)cc(-c4ccsc4)n3)CC2)cn1
4. COC(=O)C1(NCc2nc(C)c(C)o2)CCC(C)CC1 (configuration not stated)
5. CCc1cnc(C)nc1NC(CC)c1cnn(C)c1 (configuration not stated)
6. O=C1CCCN1CCCC(=O)N1CCCCC1c1ccc(F)cc1 (configuration not stated)
7. Cc1ccc(NC2CCN(C(=O)CCCc3ccccn3)CC2)cc1
8. CCCc1nc(C)cc(N2CCC3(CCC(=O)N(CCO)C3)CC2)n1

-98.3
2.69
-3.5
-8.62
-2.39
2.07
-8.59
-4.4

For the 7 compounds below, give their cytotoxicity at 70.5 h values.
1. CCc1cc(NCc2cccnc2N2CCCCC2)n2ncnc2n1
2. COCCN(C)C[C@@H]1CN(C(=O)c2sc3ccccc3c2C)C[C@@H]1CO
3. CC(C)(C#N)c1ccc(NS(=O)(=O)CC2CCCCO2)cc1 (configuration not stated)
4. O=C(c1ccc(-n2cccn2)c(F)c1)N1CCCN2CCCC2C1 (configuration not stated)
5. CCOCc1ccccc1NC(=O)NCC(C)(O)c1cc(C)oc1C (configuration not stated)
6. O=C1CC2(CCN(CC3CCOC3)CC2)CN1Cc1cc(F)cc(F)c1 (configuration not stated)
7. OC(c1ccccn1)C1CCN(Cc2cc3n(n2)CCNC3)CC1 (configuration not stated)

0.666
-6.69
-0.0974
-8.24
-1.67
-6.96
17.1

----------
# experiment: Human HepG2 cell viability assay in 384 well format
# Format: toxicity, cell-based
# Set-up: dose 125 nL, time 70.5 hour; concentration not given beside the values
# measurement-parameters: HepG2 cells, read-out: Inhibition
assay-metric: cytotoxicity at 70.5 h (%)
Give bare numbers, in %.

# count of solved cases: 5
# compound, unit-of-measurement, cytotoxicity at 70.5 h
measured = [
    ("Cc1nc(CNC(=O)c2ccc3c(c2)nc(N2CCOCC2)n3C)cs1", "%", -5.03),
    ("CCn1cnnc1CNC(=O)N(C)Cc1ccc(F)c(F)c1", "%", -5.87),
    ("N#CCCN(CCC#N)C(=O)CN1CCCC1Cc1cccc(F)c1 (centres undefined)", "%", -5),
    ("Cc1ocnc1C(=O)N(Cc1cccnc1)C[C@@H]1CCC(=O)N1", "%", -8.79),
    ("CC(C)CCC(=O)Nc1ccc2oc(=O)n(CCN(C)C)c2c1", "%", -1.73),
]

Batch: cytotoxicity at 70.5 h for all items listed.
1. O=C(CSc1nnc[nH]1)NCc1cccs1
2. O=C(NCC1CC1)c1cnc(-c2ccccc2)nc1
3. CN(C)C1CCC2(CCN(Cc3nccn3C)CC2)c2ccccc21 (centres undefined)
4. Cc1nccn1C1CCCN(C(=O)c2ccc3c(c2)OCCCO3)C1 (centres undefined)

-2.74
-5.81
-4.41
-0.919

Would you be so kind as to report cytotoxicity at 70.5 h for each listed record?
1. O=S(=O)(Nc1ccc2c(c1)OCCO2)N1CCCCC1
2. Cn1c2c(c(=O)n1C)CN(C(=O)c1cnccn1)CCC2
3. O=C(c1nc(-c2ccc3cc[nH]c3c2)no1)N1CCCC1

[-0.954, -8.23, -5.08]

The following compounds each have a reported value; give each one's cytotoxicity at 70.5 h.
1. Cc1nn(C)c(N2CCOCC2)c1CNC1COc2ccccc2C1 (centres undefined)
2. O=C(CC(F)(F)F)Nc1cc(F)ccc1OCC1CCCO1 (centres undefined)
3. CC(C)c1nc(-c2ccc(=O)[nH]n2)n(-c2ccc3c(c2)OCO3)n1
4. Cc1ccc2nc(C)cc(C(=O)NCc3csc(N(C)C)n3)c2c1
5. CN(Cc1cnn(C)c1)C(=O)NC1CCS(=O)(=O)C1 (centres undefined)
6. CN(C)C(=O)[C@@H]1C[C@@H]2CCN(Cc3nccs3)C[C@@H]2O1
7. CN1CC(=O)N(c2cccc(F)c2)CC12CCN(Cc1cncn1C)C2 (centres undefined)

27.5
-11.3
-10.3
-2.75
-6.09
-6.01
-4.15

----------
# experiment: Human HepG2 cell viability assay in 384 well format
# Type: toxicity, cell-based
# Design: dose 125 nL, time 70.5 hour; concentration not given beside the values
# measurement-parameters: HepG2 cells, read-out: Inhibition
assay-metric: cytotoxicity at 70.5 h (%)
Answers are plain numbers, in %.

The examples below pair each entry with its known result.
# molecule, unit-of-measurement, cytotoxicity at 70.5 h
data = [
    ("Cc1nccc(NCc2cncc3c2CCN(CC2CCOC2)C3)n1 (centres undefined)", "%", 5.73),
    ("COC(=O)CCN(CC1CCCO1)C(=O)Cc1ccc(OC)c(OC)c1 (centres undefined)", "%", -5.89),
    ("Cc1cn(-c2ccccc2)nc1NS(=O)(=O)c1cc(C(=O)O)cs1", "%", 14.9),
    ("COC(=O)N1CC(C)=C(C)CN1C(=O)Nc1ccc(Cl)cc1", "%", 3.18),
]

Batch: cytotoxicity at 70.5 h for all items listed.
1. CCN(C(=O)Nc1nncs1)C(C)c1cccc(OC)c1 (centres undefined)
2. O=C(NCCN1CCCc2ccccc21)c1scnc1Cl
3. CC(C)N(C)S(=O)(=O)c1ccc2c(c1)CCN(C(=O)c1ccccn1)C2
4. COCC(O)CNC(=O)Nc1ccc(Cl)cc1-n1cccc1 (centres undefined)
5. CN1CCN(S(=O)(=O)c2cccc(C#N)c2)c2ccc(F)cc21
6. Cc1nc(C2CCCN2Cc2ccon2)no1 (centres undefined)

-9.86
10.6
22.8
-7.23
0.333
-5.54

Hey, can you go through the list below and give me cytotoxicity at 70.5 h for every item?
1. COCCN1CCN(CC(=O)N(C)Cc2ccccc2)CC1C (centres undefined)
2. O=C(N[C@@H]1CCNC[C@H]1O)c1ccc(F)c(Cl)c1
3. CN(Cc1ccc(-n2cccn2)cc1)Cc1cnc(N(C)C)nc1
4. COc1ncccc1NC(=O)N(Cc1ccco1)C1CC1
5. COCC1CCCN(C(=O)c2ccc(NC(=O)CC(C)C)c(C)c2)C1 (centres undefined)
6. Cc1cc(C)n(CCC(=O)N2CCC(c3nc(C(C)C)no3)CC2)n1
7. Cc1ccccc1C(=O)NC[C@@H]1CCN(C(=O)CN2CCCC2)C[C@H]1O

53.1
-7.9
-8.45
-14.3
-17.4
-5.07
-5.06

Here are 4 molecules. What values of cytotoxicity at 70.5 h were reported for them?
1. CCn1cc(N2Cc3nc(N(C)C)ncc3C2=O)cn1
2. c1cc(N2CCCCC2)ccc1-c1noc(CN2CCOCC2)n1
3. O=C(NC(Cc1ccsc1)c1nccs1)C1CC1 (centres undefined)
4. Cc1nc2c(c(N3CCCOCC3)n1)CCN(c1nccs1)CC2

[-4.06, -0.0335, -6.11, -6.82]

Please give cytotoxicity at 70.5 h for each item listed below.
1. COc1cc2c(cc1-c1nc3c(cnn3C(C)C)[nH]1)OCO2
2. Fc1ccc(C2(CNC3=NCCN3)CCCC2)cc1
3. NC(=O)C1CCCN1Cc1ccccc1NC(=O)Cc1cccs1 (centres undefined)

1. -0.0981
2. 3.33
3. 13

// data source = ChEMBL document CHEMBL3507680
